Data origin: patent US20230212163A1

measurementProtocol: logP by HPLC on reversed-phase column (C18)
Assay type: physicochemical
experimentalContext: LC-UV, neutral range, ammonium acetate/acetonitrile, read-out: logP (neutral)
Text: […]
recordedMetric: chromatographic logP

chemicalString | valueReported
CCS(=O)(=O)c1ccc(F)nc1-c1nc2cc(S(=O)(=O)C(F)(F)F)ccc2o1 | 3.11
CCS(=O)(=O)c1ccc(-n2ncn(-c3cccc(F)c3)c2=O)nc1-c1nc2cc(S(=O)(=O)C(F)(F)F)ccc2o1 | 3.43
O=S(=O)(c1ccc2oc(-c3nc(F)ccc3F)nc2c1)C(F)(F)F | 3.06

----------
Test system: Myzus persicae
measurementProtocol: Myzus persicae oral test
Format: in vivo
experimentalContext: 120 h, application rate 4 ppm, after 5 days, read-out: efficacy
recordedMetric: pest or weed control at 4 ppm (%)
Express it in %; write the number only.

compound | valueUnit | pest or weed control at 4 ppm
CCS(=O)(=O)c1ccc(-n2ncn(-c3ccc(Cl)cc3)c2=O)nc1-c1nc2cc(S(=O)(=O)C(F)(F)F)ccc2o1 [Example I-02] | % | 90
CCS(=O)(=O)c1ccc(-n2ncn(-c3ccc(C#N)cc3)c2=O)nc1-c1nc2cc(S(=O)(=O)C(F)(F)F)ccc2o1 [Example I-06] | % | 90
CCS(=O)(=O)c1ccc(-n2ncn(-c3ccc(F)cc3)c2=O)nc1-c1nc2cc(S(=O)(=O)C(F)(F)F)ccc2o1 [Example I-04] | % | 100
CCS(=O)(=O)c1ccc(-n2ncn(-c3cccc(F)c3)c2=O)nc1-c1nc2cc(S(=O)(=O)C(F)(F)F)ccc2o1 [Example I-14] | % | 90
CCS(=O)(=O)c1ccc(N2N=CC(c3ccccc3)C2=O)nc1-c1nc2cc(S(=O)(=O)C(F)(F)F)ccc2o1 (centres unmarked) [Example I-01] | % | 100
CCS(=O)(=O)c1ccc(-n2ncn(-c3ccc(Br)cc3)c2=O)nc1-c1nc2cc(S(=O)(=O)C(F)(F)F)ccc2o1 [Example I-05] | % | 100
CCS(=O)(=O)c1ccc(-n2ncn(C3CC3)c2=O)nc1-c1nc2cc(S(=O)(=O)C(F)(F)F)ccc2o1 [Example I-03] | % | 100

Please examine the following record next.
Ask | Provide the documented pest or weed control at 4 ppm with Myzus persicae as the system for CCS(=O)(=O)c1ccc(-n2ncn(-c3cccc(I)c3)c2=O)nc1-c1nc2cc(S(=O)(=O)C(F)(F)F)ccc2o1 [Example I-16]
Reply | 90
